Recorded z-score, one value per entry.
# assay_name: A549 cell viability effects, profiling panel, calcein-AM fluorescence, 48 h, basal (AID 1162); also: test concentration not given here
# reported_conditions: higher = more signal
measurement_type: z-score

compound	result
COc1ccc(-c2cc3c(c(CCc4ccccc4)n2)[Si](C(C)C)(C(C)C)O[C@H]3c2ccccc2)cn1	0.359
Cc1ccc(N2C(=O)c3ccccc3[C@@H](C(=O)NCCN3CCOCC3)[C@@H]2c2ccc(CO)cc2)nc1	-0.619
[N-]=[N+]=Nc1ccccc1C[C@@]1(C(=O)NCC(O)CO)N=C(c2ccc(OCCCO)cc2)O[C@@H]1c1ccccc1N=[N+]=[N-] (some centres undefined)	-3.97
COCCOC(=O)N1C(=O)[C@@]2(c3cc(C#CCNC(N)=O)ccc31)[C@H](c1ccc(O)cc1)N1[C@H](c3ccccc3)[C@H](c3ccccc3)OC(=O)[C@H]1[C@@H]2C(=O)N1CCc2cc(OC)c(OC)cc2C1	0.571
Cc1ccc(S(=O)(=O)N2[C@@H](c3ccccc3)C(C(=O)O)=CC[C@H]2c2ccc(F)cc2)cc1	-0.996
C=CCNC(=O)[C@@H]1[C@H]2C(=O)O[C@H](c3ccccc3)[C@H](c3ccccc3)N2[C@H](c2ccc(OCCO)cc2)[C@@]12C(=O)Nc1ccc(C#CCNC(N)=O)cc12	-0.842
CCOC(=O)C1=CC[C@@H](c2ccccc2)N(S(=O)(=O)c2ccc(C)cc2)[C@@H]1C#N	0.25
Cc1c(NC(=O)/C(C#N)=C/C=C/c2ccc([N+](=O)[O-])cc2)c(=O)n(-c2ccccc2)n1C	0.251
C=C[C@H](C)[C@@H](OC(=O)Nc1ccc(SC)cc1)c1ccc(OCCO)cc1	-0.305
CC[C@@H]1C=C(C(=O)O)[C@H](c2cccc(Cl)c2)N1S(=O)(=O)c1ccc(C)cc1	-0.0107
COc1ccc(CCNC(=O)[C@@]2(C)c3ccccc3C(=O)N(Cc3ccc(OC(F)(F)F)cc3)[C@H]2c2ccc(CO)cc2)cc1	0.109
CCCNC(=O)[C@@]1(Sc2ccc(C)cc2)CC(=O)N(Cc2cc(C(F)(F)F)cc(C(F)(F)F)c2)[C@@H]1c1ccc(CO)cc1	-0.259
COc1ccc([Si](C)(C)[C@H]2[C@H](CC(=O)N(CCO)Cc3ccccc3)O[C@@]3(C(=O)N(Cc4ccc(N5C(=O)c6cccc7cccc5c67)cc4)c4ccccc43)[C@@H]2C)cc1	-1.12
COCCOC(=O)N1C(=O)[C@@]2(c3cc(C#CCNC(N)=O)ccc31)[C@H](C(N)=O)[C@H]1C(=O)O[C@H](c3ccccc3)[C@H](c3ccccc3)N1[C@@H]2c1ccc(O)cc1	1.05
